Data origin: the Human Domainome abundance scans (Beltran et al. 2025)

B1: Tyrosine-protein kinase Lck, residues 63 to 120; numbered along this chain, P06239 (parent)
chain: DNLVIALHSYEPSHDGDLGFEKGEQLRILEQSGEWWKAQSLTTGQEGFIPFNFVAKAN

Variants of: B1
Assay: abundance fitness (aPCA) (normalised: wild type 0, dead -1); higher = more abundant; growth selection in yeast, the domain comes from the species named
Details: Homo sapiens
Metric name: abundance fitness

Record excerpt, results attached:
>>> print(df.to_string())
    mut        metric_name  result
0  E24K  abundance fitness   -0.82
1  E24C  abundance fitness  -0.628
2  Q45M  abundance fitness  -0.092
3  A38G  abundance fitness  -0.483
4  W36V  abundance fitness    -0.1

Req: Entry E34H : reported abundance fitness = ?
Resp: -0.205

Req: Consider the variant G19D and give its measured abundance fitness.
Resp: -0.648
